Reported inhibition values for the following molecules.
test-summary: inhibitors of the yeast RAM network, pilot screen, dse1pr::URA3 reporter, 5-FOA selection (AID 869);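 note: 0% = DMSO wells with no growth and 100% = 10 µM 1-NA-PP1 with full growth; RAM network block rescues cells from 5-FOA so hits raise OD615 growth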
experimental-context: S. cerevisiae dse1pr::URA3 5-FOA growth, OD615, 2 d; at 10 µM; hits give high values; strain carries analog-sensitive mutant Cbk1 kinase
Reply numerically in %, unit not repeated.

Below, each entry is followed by its recorded inhibition result.
# molecule, readout-unit, inhibition
records = [
    ("CCOc1ccc(C2CC(c3ccc(F)cc3)n3ncnc3N2)cc1 (centres undefined)", "%", 2.65),
    ("CCC(CC)C(=O)NCc1ccccc1OC", "%", 0.98),
    ("Cc1ccc(NC(=O)c2c(O)c3ccccc3n(C)c2=O)nc1", "%", 0.36),
    ("O=C(CN1CCCCC1)Nc1nnc(-c2ccccc2)s1", "%", 0.38),
    ("c1ccc(-c2cnn3nnnc3n2)cc1", "%", 1.85),
]

-- ask Recorded inhibition of CC12CC(NC(=O)N1CCc1ccccc1)c1ccccc1O2 (centres undefined) , please.
-- reply 1.45

-- ask Query (molecule): Cn1c(NCCO)nc2c(c1=O)C1(CCCCC1)Cc1ccccc1-2 ; field requested: inhibition
-- reply 2.31

###

Catalogue of viability values
test-summary: growth suppression of beta-catenin knockout HCT116, pilot screen, human colon tumor cells (AID 823);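 note: 0% = wells killed by 20 µM Hyamine and 100% = untreated DMSO cell wells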
experimental-context: CellTiter-Glo, 60 h, at 10 µM, hits give low values
Results filed as inconclusive are left out.
// units = %; emit number, no label

# example entries with known answers
# compound, readout-unit, viability
rows = [
    ("C=CCn1c(SCCCC)nc(O)cc1=O", "%", 105),
    ("Nc1ccc(SC(F)(F)F)cc1C(=O)c1ccccc1", "%", 74),
    ("COc1cccc(-c2nc(CS(=O)(=O)CC(=O)NCc3ccccc3OC)c(C)o2)c1", "%", 95.9),
]

-- ask Sample CCCOc1cccc(C(=O)Nc2cccc(NC(=O)c3ccco3)c2)c1 — what was its viability?
-- reply 85.3

-- ask Name the recorded viability for Cn1cc(CC(=O)NCCCN2CCCC2=O)c2ccccc21 .
-- reply 99.3

-- ask Name the reported viability value associated with the compound COCCn1c(SCC(=O)Nc2cc(Cl)ccc2OC)nc2c(c1=O)SC(C)C2 (stereo not drawn)
-- reply 83.3

-- ask Can you share its viability? I mean this compound: CC(C)(C)NC(=O)C1CN(S(=O)(=O)c2ccccc2)CCN1S(=O)(=O)c1ccccc1 (stereo not drawn)
-- reply 97.3

###

Catalogue of growth inhibition values
test-summary: OD615 S. cerevisiae growth inhibition, permissive medium, pilot counter-assay, permissive growth control for S. cerevisiae lifespan shortening project (AID 705)
experimental-context: OD615, 24 h, at 10 µM, hits give high values
The response must be a number in % with no trailing unit.

Worked cases, growth inhibition given:
# molecule, growth inhibition [%]
rows = [
    ("O=C(O)CC1SC(=Nc2ccccc2)N(c2ccccc2)C1=O (stereo unspecified)", -21.4),
    ("CCOC(=O)CC(=O)Nc1ccc(Br)cc1C(=O)O", -18.4),
    ("Cn1c(=O)[nH]c(=O)c2c1nc(CN1CCN(c3cccc(Cl)c3)CC1)n2Cc1ccccc1Cl", -9.22),
    ("CC1Oc2ccccc2C=C1C1/C(=C(/O)c2ccccc2)C(=O)C(=O)N1CCCN(C)C (stereo unspecified)", -3.27),
    ("Cc1ccccc1NC(=O)c1ocnc1C", -1.01),
]

Moving on to the next molecule.
-- ask Look up growth inhibition for this molecule: Cc1oc(-c2ccccc2)nc1CS(=O)CC(=O)N1CCc2ccccc2C1 (stereo unspecified)
-- reply 5.38

###

test-summary: Restrictive medium S. cerevisiae growth inhibition, OD615, pilot screen of yeast lifespan reduction project, restrictive growth control (AID 706);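 note: modified DeaD lifespan yeast strain shifted to restrictive glucose medium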
experimental-context: OD615, 48 h, at 10 µM, hits give high values
We begin with a simple list: items and their reported growth inhibition.
Give the number; % is assumed, so skip it.

# compound, observed-property, val
data = [
    ("CC(=O)N1CCc2cc(C(=O)CN3CCN(C(=O)c4ccco4)CC3)ccc21", "growth inhibition", 3.74),
    ("CCOC(=O)c1ccc(NC(=O)NS(=O)(=O)c2ccc(C)cc2)cc1", "growth inhibition", -3.95),
    ("O=C(NC1CCCc2ccccc21)C1CCC(CNc2c(N3CCOCC3)c(=O)c2=O)CC1 (stereo unspecified)", "growth inhibition", 7.02),
    ("O=C(O)Cc1ccc(NC(=O)C2CC=CCC2C(=O)O)cc1 (stereo unspecified)", "growth inhibition", 1.55),
    ("COc1ccc(C2C(C(=O)N3CCCC3)c3cc(OC)c(OC)cc3C(=O)N2C)cc1OC (stereo unspecified)", "growth inhibition", -25.4),
    ("COC(=O)C1=C(C)Nc2nc(-c3ccccc3)nn2C1c1ccc(C)o1 (stereo unspecified)", "growth inhibition", 12.3),
    ("COC(=O)c1ccc(CSc2nc3c(c(=O)n2-c2ccc(F)cc2)SCC3)o1", "growth inhibition", -16.6),
    ("CCc1ccc(N(CC(=O)NC2CCCCC2)S(=O)(=O)c2c(C)noc2C)cc1", "growth inhibition", -2.85),
]

-- ask Can you share its growth inhibition? I mean this compound: O=C(Cc1n[nH]c(=O)c2ccccc12)NCc1ccccn1
-- reply -19.5

-- ask Can you look up the measured growth inhibition of CC(C)NC(=O)NC(=O)COc1ncnc2sccc12 for me?
-- reply -7.55

-- ask Given the compound Cc1cc(C)cc(Nc2cc(C)nc3nc(C)nn23)c1 , what is its reported growth inhibition?
-- reply 11.6

###

test-summary: OD615 S. cerevisiae growth inhibition, permissive medium, pilot counter-assay, permissive growth control for S. cerevisiae lifespan shortening project (AID 705)
experimental-context: OD615, 24 h, at 10 µM, hits give high values
growth inhibition listing for selected compounds.
Could you give me the number in %? Just the number is fine.

Known results for compounds:
# compound, growth inhibition [%]
data = [
    ("Cc1ccc(-c2nc(CS(=O)(=O)CC(=O)N3CCc4ccccc4C3)c(C)o2)cc1", -3.42),
    ("COc1ccc(Cn2c(=O)[nH]c3cc(C(=O)NCCCN4CCCC4=O)ccc3c2=O)cc1", -17.7),
]

Turning to the following compound.
-- ask Can you share its growth inhibition? I mean this compound: COc1ccc2c(c1)OC13CCN(C)CC1C2C(C(=O)c1ccc(F)cc1)C(=O)N3 (stereo not drawn)
-- reply -25.9

###

test-summary: growth suppression of beta-catenin knockout HCT116, pilot screen, human colon tumor cells (AID 823);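 note: 0% = wells killed by 20 µM Hyamine and 100% = untreated DMSO cell wells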
experimental-context: CellTiter-Glo, 60 h, at 10 µM, hits give low values
Results filed as inconclusive are left out. Active and inactive are the calls of the source.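 How the source made its calls: active means cell viability at or below a set limit in both duplicate runs, the limit being the all-compound median minus 4 SD (cut at about 23% in these data, passing the limit was not always enough); inconclusive means no clear call, values can overlap the other calls; inactive means the rest.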
Each entry below carries its recorded viability.

Recorded viability, per entry:
# compound, viability
rows = [
    ("CCCCN(C)CCNC(=O)Cn1c(=O)sc2ccccc21", "99% (inactive)"),
    ("COC(=O)c1ccccc1Nc1cc(C)nc2nc(C)nn12", "105% (inactive)"),
    ("CCC(CO)Nc1ncnc2c1cnn2-c1ccc(OC)cc1 (stereo not given)", "104% (inactive)"),
    ("COCCOC(=O)C1=C(C)NC2=C(C(=O)CCC2)C1c1ccc(N(C)C)cc1 (stereo not given)", "98.6% (inactive)"),
]

-- ask Consider the compound shown here: COc1cc(C(=O)NCc2ccco2)c(Br)c(OC)c1OC What is its recorded viability?
-- reply 98.3% (inactive)

###

# viability per record follows
test-summary: growth suppression of beta-catenin knockout HCT116, pilot screen, human colon tumor cells (AID 823);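 note: 0% = wells killed by 20 µM Hyamine and 100% = untreated DMSO cell wells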
experimental-context: CellTiter-Glo, 60 h, at 10 µM, hits give low values
Results filed as inconclusive are left out.
Kindly answer with a numeric value in %, unit omitted.

# compound, val
records = [
    ("COc1ccc(CCN=C2SCC(=O)N2C)cc1OC", 102),
    ("CN1C(=O)CC(N2CCC(c3nc4ccccc4[nH]3)CC2)C1=O (configuration not stated)", 112),
    ("COc1ccc(OC)c(C2CC(=O)c3c([nH]c(C(=O)OC(C)C)c3C)C2)c1 (configuration not stated)", 15.2),
    ("COc1ccc(OCC(=O)Nc2cc(-c3nn4c(C)nnc4s3)ccc2C)cc1", 106),
    ("O=C(NC1CCN(Cc2ccccc2)CC1)C1CCCN(c2nnc(-n3cccc3)s2)C1 (configuration not stated)", 93.1),
    ("O=C1c2ccccc2C(=O)N1CCc1nc2ccccc2c(=O)n1Cc1ccco1", 89.7),
]

-- ask Need viability, item COc1ccc2c(c1)CCc1c(C(=O)NCc3ccc(F)cc3)noc1-2
-- reply 100

###

test-summary: growth suppression of beta-catenin knockout HCT116, pilot screen, human colon tumor cells (AID 823);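 note: 0% = wells killed by 20 µM Hyamine and 100% = untreated DMSO cell wells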
experimental-context: CellTiter-Glo, 60 h, at 10 µM, hits give low values
Records with an inconclusive call do not appear.
observed-property: viability (%)
Output spec: scalar in %, unitless text.

Solved entries (count: 10):
# compound, val
records = [
    ("CCOc1ccc(C2c3c(oc4ccccc4c3=O)C(=O)N2c2ccc(C)cn2)cc1OC (stereo not given)", 81.4),
    ("CCOC(=O)CSc1nc(N)nc(C)c1Br", 103),
    ("O=C(C1CCCN(S(=O)(=O)c2ccccc2)C1)N1CCCCCC1 (stereo not given)", 79.6),
    ("CCOC(=O)CSC1=C(C#N)C(c2ccccc2OC)CC(=O)N1 (stereo not given)", 27.5),
    ("O=C(NCc1ccccc1)c1ccc(/C=N/O)nc1", 98.2),
    ("CCOC(=O)c1[nH]c2cc(OC)c(OC)cc2c1NC(=O)c1ccc2c(c1)OCO2", 102),
    ("CCOC(=O)N1CCN(C(=O)Cn2ncc3c2-c2ccccc2OC3)CC1", 102),
    ("Cc1nc2ccccc2c2oc(C(=O)Nc3ccc4c(c3)OCCO4)cc12", 87.7),
    ("Cn1c(C(=O)NCc2ccccn2)cc2c(=O)n(C)c3ccccc3c21", 103),
    ("CCN1CCN(CCNC(=O)C2CCN(Cc3nc(-c4ccc(Cl)cc4)oc3C)CC2)CC1", 62.3),
]

-- ask So what's the measured viability for this one? COc1ccc(C(c2sc3ncnn3c2O)N2CCN(c3ccccc3F)CC2)cc1OC (stereo not given)
-- reply 103

-- ask Looking for the measured viability of CCCc1cc(C(=O)Nc2cccc(C(C)=O)c2)no1 , can you help?
-- reply 104
